Source: PubChem BioAssay (NCATS)

Here, each record is paired with measured max response data.
- Tested on: NIH3T3
- Test: Cytotoxic Profiling of Annotated Libraries Using Quantitative High-Throughput Screening (AID 1296008); further: on the % scale 0 is the no-effect control and ±100 the full control effect; nearly all actives have a fitted effect of over 60% in size
- Experimental Conditions: Five cell lines viability, CellTiter-Glo ATP luminescence, 48-72 h; hits give low values
Records with an inconclusive call do not appear.

| Compound | Unit String | max response |
| --- | --- | --- |
| O=C(O)c1ccncc1Nc1nn(CCN2CCC(F)(F)CC2)c2ccc(F)cc12 | % | 1.4 |
| CC(=O)OC1CCC2(C)C(CCC3(C)C2CC=C2C4CC(C)(C)CCC4(C)CCC23C)C1(C)C(=O)O (stereo unspecified) | % | 3.68 |
| CC/C=C/C=C/C1(C)OC(CC(CO)OC)=CC1=O (stereo unspecified) | % | 1.62 |
| N#CN1CCC[C@@H](n2nc(-c3ccc(Oc4ccc(F)cc4F)cc3)c(C(N)=O)c2N)C1 | % | 1.04 |
| C[C@@H](CC[C@@H]1[C@@]2(C)CCCC(C)(C)C2CC[C@@]1(C)O)CC(=O)O (stereo partly specified) | % | 0.858 |
| C=C[C@H]1[C@H](O[C@@H]2O[C@H](CO)[C@@H](O)[C@H](O)[C@H]2O)OC=C(C(=O)OC)[C@H]1CCO | % | -6.64 |
| O=C(O)[C@H]1Cc2ccccc2CN1 | % | 4.47 |
| CC(C)CC(c1c(O)c(C=O)c(O)c(C=O)c1O)C1CCC(C)(O)C2CC(C(C)(C)O)CCC12C (stereo unspecified) | % | 0.233 |
| COC(=O)[C@H](c1ccccc1Cl)N1CCC2SC(=O)C=C2C1 (stereo partly specified) | % | -12.1 |
| C=C(C(=O)O)[C@@H]1CC[C@@]2(C)CCC[C@@](C)(O)[C@@H]2C1 | % | 1.2 |
| CC(=O)OC/C(=C/C(=O)O)CC[C@@H]1C(CO)=CC[C@@H]2C(C)(C)CCC[C@@]12C | % | -1.93 |
| COc1c2c(c(C)c3c1C(=O)OC3)OC1(C)CC(O)C34OC(OC)(CC(O)C3(C)C1C2)OC4(C)C (stereo unspecified) | % | 1.57 |
| CCOc1ccc(-c2nn3ncccc3c2-c2ccc(S(C)(=O)=O)cc2)cc1 | % | 3.39 |
| Cc1occc(=O)c1O[C@@H]1O[C@H](CO[C@@H]2OC[C@](O)(CO)[C@H]2O)[C@@H](O)[C@H](O)[C@H]1O | % | 1.4 |
| CC(=O)C1CCC(=O)N1Cc1ccccc1 (stereo unspecified) | % | 3.14 |
| COC(=O)[C@@H](NC(=O)[C@H](CC(C)C)NC(=O)N(Cc1ccccc1)C[C@@H](O)[C@H](Cc1ccccc1)NC(=O)OC(C)(C)C)C(C)C | % | -6.39 |
| CC(=O)OC1CC(C(C)(C)O)OC2CCC3(C)OC4=C(C(=O)C=C5C(C)C(OC(C)=O)C6(C)C(C)OC546)C(O)C3C12C (stereo unspecified) | % | 1.94 |
| C=C1CCC2C(C)(C)CCC[C@]2(C)[C@H]1CC/C(C)=C/C(=O)O (stereo partly specified) | % | 2.18 |
| C[C@@H](c1ccccc1)N(C(N)=NC#N)c1cccc2ncccc12 | % | 3.53 |
| CC(NC(=O)c1ccccc1N)C(=O)O (stereo unspecified) | % | 0.106 |
| CC(C)c1c(NC(=O)Nc2ccc(Cl)cc2)c(=O)n(-c2ccccc2)n1C | % | -1.6 |
| C=C(C)[C@@H]1CC[C@]2(C)CC[C@]3(C)C(CCC4[C@@]5(C)CC[C@H](O)C(C)(C)C5CC[C@]43C)C12 (stereo partly specified) | % | 2.33 |
| C=C1CC23CC(=O)C4C(CO)(CO)CCCC4(C)C2CCC1C3 (stereo unspecified) | % | -8.41 |
| CC(C)(O)C(O)C(=O)OCc1ccc(O[C@@H]2O[C@H](CO)[C@@H](O)[C@H](O)[C@H]2O)cc1 (stereo partly specified) | % | -2.16 |
| C[C@@H]1O[C@@H](O[C@H]2[C@H](O[C@H]3[C@H](O[C@H]4CC[C@@]5(C)C(CC[C@]6(C)C5CC=C5[C@@H]7CC(C)(C)C[C@@H](O)[C@]7(C)CC[C@]56C)C4(C)C)O[C@H](C(=O)O)[C@@H](O)[C@@H]3O)O[C@H](C(=O)O)[C@H](O)[C@@H]2O)[C@H](O)[C@H](O)[C@H]1O (stereo partly specified) | % | 0.708 |
| C/C=C(\C)C(=O)OCC1OC(OC2OC(CO)C(O)C(O)C2O)C(O)C(O)C1O (stereo unspecified) | % | -3.87 |
| C/C=C(\C)C(=O)OC[C@H]1O[C@@H](O[C@H]2[C@@H](O[C@H]3O[C@H](CO)[C@@H](O)[C@H](O)[C@H]3O[C@@H]3O[C@H](CO)[C@@H](O)[C@H](O)[C@H]3O)O[C@H](COC(=O)/C(C)=C/C)[C@@H](O)[C@@H]2O)[C@H](O)[C@@H](O)[C@@H]1O | % | 3.7 |
| C[C@@H]1O[C@@H](O[C@@H]2\C=C/C=C\C=C/C=C\C[C@H](C)OC(=O)/C=C\[C@H]3O[C@@H]3C[C@H](O)C[C@]3(O)C[C@@H](O)[C@@H](C(=O)O)[C@H](C2)O3)[C@H](O)[C@H](N)[C@@H]1O | % | 3.56 |
| COc1cccc(Cn2ncc3c4sc(S(C)=O)cc4n(C)c3c2=O)c1 (stereo unspecified) | % | 2.83 |
| COC(=O)C1=C[C@@H](O)[C@@H](O)[C@H](O[C@@H]2O[C@H](CO)[C@@H](O)[C@H](O)[C@H]2OC(=O)/C=C/c2ccccc2)C1 | % | -1.73 |
| C[C@@H]1O[C@@H](OC2C(O[C@H]3[C@H](O[C@H]4CC[C@@]5(C)C(CC[C@]6(C)C5CC=C5C7CC(C)(C)CC(O)[C@]7(C)CC[C@]56C)C4(C)C)O[C@H](C(=O)O)[C@@H](O)[C@@H]3O)OC(CO)C(O)C2O)[C@H](O)[C@H](O)[C@H]1O (stereo partly specified) | % | 1.38 |
